Source listed as patent US20070270352A1.

Tested on: p75^NTR (i.e. Chopper)-mediated cell apoptosis
Format: cell-based, mice
Settings: p75NTR (Chopper)-mediated apoptosis of neuronal cells; neuronal viability after Chopper peptide, inhibitor added just prior or pretreated
Assay metric: Prevention of killing?

Compound: Nc1ccncc1
Observed result: Toxic
--
Compound: O=C(O)CN(CC(=O)O)c1ccccc1OCCOc1ccccc1N(CC(=O)O)CC(=O)O
Observed result: No
--
Compound: CCCCN1CCCCC1C(=O)Nc1c(C)cccc1C (stereo not shown)
Observed result: Yes
--
Compound: CC(=O)OCOC(=O)CN(CC(=O)OCOC(C)=O)c1ccccc1OCCOc1ccccc1N(CC(=O)OCOC(C)=O)CC(=O)OCOC(C)=O
Observed result: Yes
